Origin of values: paper PMC7909954

target: mMOR (Mus musculus, UniProt P42866)
Sequence (P42866 whole entry): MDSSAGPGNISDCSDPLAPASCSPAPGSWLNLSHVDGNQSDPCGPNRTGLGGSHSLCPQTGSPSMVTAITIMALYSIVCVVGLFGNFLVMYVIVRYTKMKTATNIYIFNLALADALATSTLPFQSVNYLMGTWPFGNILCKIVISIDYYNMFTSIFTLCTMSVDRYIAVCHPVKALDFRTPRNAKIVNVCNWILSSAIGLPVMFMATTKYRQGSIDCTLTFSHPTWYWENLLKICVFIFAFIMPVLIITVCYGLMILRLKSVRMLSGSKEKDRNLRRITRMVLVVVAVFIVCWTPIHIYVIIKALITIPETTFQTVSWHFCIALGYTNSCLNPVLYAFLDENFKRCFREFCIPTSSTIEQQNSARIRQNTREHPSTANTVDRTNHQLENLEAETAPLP
pKi: −log10 of the molar value.
measurement.type: pKi

> print(dat)
                                   molecule  measurement.type  meas.value
1  N=C(N)NCc1cccc(C(=O)N[C@@H]2CCC3C4Cc5ccc(O)c6c5[C@@]3(CCN4CC3CC3)C2O6)c1 (stereo partly drawn)               pKi        9.47
2  O=C(N[C@@H]1CC[C@@]2(O)C3Cc4ccc(O)cc4[C@@]2(CCN3CC2CC2)C1)c1cccc(I)c1               pKi        9.70
3  NCc1cccc(C(=O)N[C@@H]2CCC3C4Cc5ccc(O)c6c5[C@@]3(CCN4CC3CC3)C2O6)c1 (stereo partly drawn)               pKi        9.64
4  O=C(NC1C=CC2C3Cc4ccc(O)c5c4C2(CCN3CC2CC2)C1O5)c1cccc(I)c1 (stereo not drawn)               pKi       10.68
5  O=C(N[C@@H]1CCC2C3Cc4ccc(O)c5c4[C@@]2(CCN3CC2CC2)C1O5)c1cccc(I)c1 (stereo partly drawn)               pKi       10.15
6  CO[C@@]12CC[C@@H](NC(=O)c3cccc(I)c3)C3Oc4c(O)ccc5c4[C@@]31CCN(CC1CC1)C2C5 (stereo partly drawn)               pKi        9.60

* * *

target: DOR (Homo sapiens, UniProt P41143); assay: cell-based; settings: HTLA, read-out: Emax% arrestin recruitment hDOR
Sequence (P41143 whole entry): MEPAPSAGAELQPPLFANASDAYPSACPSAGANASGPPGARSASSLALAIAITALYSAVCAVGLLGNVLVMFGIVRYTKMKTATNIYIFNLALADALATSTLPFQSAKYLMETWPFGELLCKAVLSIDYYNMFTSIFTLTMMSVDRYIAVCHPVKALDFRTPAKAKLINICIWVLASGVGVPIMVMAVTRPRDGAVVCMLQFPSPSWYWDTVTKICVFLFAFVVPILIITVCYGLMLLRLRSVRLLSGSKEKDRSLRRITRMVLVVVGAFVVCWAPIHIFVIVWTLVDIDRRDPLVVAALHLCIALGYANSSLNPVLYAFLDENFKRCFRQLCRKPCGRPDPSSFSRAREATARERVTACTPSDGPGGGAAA
Measured Emax by item
measurement.type: Emax (%)

> print(dat)
                                   compound  measurement.type  meas.value
1  O=C(NC1CCC2(O)C3Cc4ccc(O)c5c4C2(CCN3CC2CC2)C1O5)c1cccc(I)c1 (stereo not drawn) [IBNtxA]              Emax         224
2  N=C(N)NCc1cccc(C(=O)N[C@@H]2CCC3C4Cc5ccc(O)c6c5[C@@]3(CCN4CC3CC3)C2O6)c1 (stereo partly drawn) [MP1208]              Emax          62
3  O=C(N[C@@H]1CC[C@@]2(O)C3Cc4ccc(O)cc4[C@@]2(CCN3CC2CC2)C1)c1cccc(I)c1 [MP1601]              Emax         203

* * *

Overview of reported Emax across a group of molecules:
target: mMOR (Mus musculus, UniProt P42866); assay: cell-based; settings: HEK-293T, read-out: Emax% G protein activation (BRET) mMOR
measurement.type: Emax (%)

> print(dat)
                                   molecule  measurement.type  meas.value
1  N=C(N)NCc1cccc(C(=O)N[C@@H]2CCC3C4Cc5ccc(O)c6c5[C@@]3(CCN4CC3CC3)C2O6)c1 (stereo partly shown)              Emax          41
2  O=C(NC1C=CC2C3Cc4ccc(O)c5c4C2(CCN3CC2CC2)C1O5)c1cccc(I)c1 (stereo not shown)              Emax          62
3  NCc1cccc(C(=O)N[C@@H]2CCC3C4Cc5ccc(O)c6c5[C@@]3(CCN4CC3CC3)C2O6)c1 (stereo partly shown)              Emax          42
4  O=C(N[C@@H]1CC[C@@]2(O)C3Cc4ccc(O)cc4[C@@]2(CCN3CC2CC2)C1)c1cccc(I)c1              Emax          49
5  O=C(NC1CCC2(O)C3Cc4ccc(O)c5c4C2(CCN3CC2CC2)C1O5)c1cccc(I)c1 (stereo not shown)              Emax          59
6  O=C(N[C@@H]1CCC2C3Cc4ccc(O)c5c4[C@@]2(CCN3CC2CC2)C1O5)c1cccc(I)c1 (stereo partly shown)              Emax          70
7  CO[C@@]12CC[C@@H](NC(=O)c3cccc(I)c3)C3Oc4c(O)ccc5c4[C@@]31CCN(CC1CC1)C2C5 (stereo partly shown)              Emax          72

* * *

molecular target: KOR (Homo sapiens, UniProt P41145); conditions: >1 G protein bias, <1 arrestin bias; vs U50,488h
Sequence (P41145 whole entry): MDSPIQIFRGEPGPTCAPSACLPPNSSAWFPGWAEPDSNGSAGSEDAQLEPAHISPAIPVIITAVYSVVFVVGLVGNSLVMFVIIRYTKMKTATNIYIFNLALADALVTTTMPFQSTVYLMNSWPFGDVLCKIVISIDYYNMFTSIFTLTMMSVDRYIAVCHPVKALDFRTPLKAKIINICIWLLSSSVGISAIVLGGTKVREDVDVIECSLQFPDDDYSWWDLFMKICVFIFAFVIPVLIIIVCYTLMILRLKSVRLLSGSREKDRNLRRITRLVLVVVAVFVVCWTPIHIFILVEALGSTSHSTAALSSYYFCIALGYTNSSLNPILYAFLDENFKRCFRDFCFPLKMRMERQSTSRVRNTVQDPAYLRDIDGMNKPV
measurement.type: Bias factor (cAMP-Tango) hKOR

> print(dat)
                                   compound               measurement.type  meas.value
1  O=C(NC1CCC2(O)C3Cc4ccc(O)c5c4C2(CCN3CC2CC2)C1O5)c1cccc(I)c1 (centres unmarked) [IBNtxA]  Bias factor (cAMP-Tango) hKOR         0.1
2  N=C(N)NCc1cccc(C(=O)N[C@@H]2CCC3C4Cc5ccc(O)c6c5[C@@]3(CCN4CC3CC3)C2O6)c1 (some centres unmarked) [MP1208]  Bias factor (cAMP-Tango) hKOR          22
3  CO[C@@]12CC[C@@H](NC(=O)c3cccc(I)c3)C3Oc4c(O)ccc5c4[C@@]31CCN(CC1CC1)C2C5 (some centres unmarked) [MP1305]  Bias factor (cAMP-Tango) hKOR           4
4  O=C(NC1C=CC2C3Cc4ccc(O)c5c4C2(CCN3CC2CC2)C1O5)c1cccc(I)c1 (centres unmarked) [MP1104]  Bias factor (cAMP-Tango) hKOR        0.15
5  NCc1cccc(C(=O)N[C@@H]2CCC3C4Cc5ccc(O)c6c5[C@@]3(CCN4CC3CC3)C2O6)c1 (some centres unmarked) [MP1207]  Bias factor (cAMP-Tango) hKOR           8

* * *

Parameter 'readout' = Log RA BRET-G rKOR; parameter 'system' = rKOR (Rattus norvegicus, UniProt P34975).
Sequence (P34975 whole entry): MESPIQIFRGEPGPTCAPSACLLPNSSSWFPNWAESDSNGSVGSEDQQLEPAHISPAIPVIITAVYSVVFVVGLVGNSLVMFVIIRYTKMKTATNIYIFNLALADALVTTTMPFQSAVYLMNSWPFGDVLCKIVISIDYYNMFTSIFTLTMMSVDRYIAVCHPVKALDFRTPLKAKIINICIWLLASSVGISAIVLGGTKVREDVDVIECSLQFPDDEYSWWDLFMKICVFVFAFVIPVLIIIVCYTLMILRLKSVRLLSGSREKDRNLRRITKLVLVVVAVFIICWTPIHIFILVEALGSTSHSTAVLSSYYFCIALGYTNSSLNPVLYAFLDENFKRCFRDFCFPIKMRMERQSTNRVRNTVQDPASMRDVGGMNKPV
measurement.type: Log RA BRET-G rKOR

> print(dat)
                                   molecule                                       tgt  meas.value
1  O=C(N[C@@H]1CC[C@@]2(O)C3Cc4ccc(O)cc4[C@@]2(CCN3CC2CC2)C1)c1cccc(I)c1  rKOR (Rattus norvegicus, UniProt P34975)       7.917
2  O=C(NC1C=CC2C3Cc4ccc(O)c5c4C2(CCN3CC2CC2)C1O5)c1cccc(I)c1 (stereo not shown)  rKOR (Rattus norvegicus, UniProt P34975)       10.07
3  O=C(N[C@@H]1CCC2C3Cc4ccc(O)c5c4[C@@]2(CCN3CC2CC2)C1O5)c1cccc(I)c1 (stereo partly shown)  rKOR (Rattus norvegicus, UniProt P34975)       9.906
4  O=C(NC1CCC2(O)C3Cc4ccc(O)c5c4C2(CCN3CC2CC2)C1O5)c1cccc(I)c1 (stereo not shown)  rKOR (Rattus norvegicus, UniProt P34975)       10.19

* * *

target: mDOR (Mus musculus, UniProt P32300); experiment: cell-based; details: pEC50 G protein activation (BRET) mDOR, ± SEM
Sequence (P32300 whole entry): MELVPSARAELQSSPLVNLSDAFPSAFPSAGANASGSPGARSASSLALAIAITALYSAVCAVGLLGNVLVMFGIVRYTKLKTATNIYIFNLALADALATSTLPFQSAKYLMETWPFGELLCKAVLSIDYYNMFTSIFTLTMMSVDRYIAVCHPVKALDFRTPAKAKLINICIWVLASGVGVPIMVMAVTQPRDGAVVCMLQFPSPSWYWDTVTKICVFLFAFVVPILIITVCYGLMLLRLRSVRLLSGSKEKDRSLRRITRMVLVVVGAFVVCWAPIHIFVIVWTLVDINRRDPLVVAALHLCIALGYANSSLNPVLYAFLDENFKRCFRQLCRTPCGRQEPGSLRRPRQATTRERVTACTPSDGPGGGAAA
measurement.type: EC50 (nM)

> print(dat)
                                   molecule  meas.value
1  O=C(N[C@@H]1CCC2C3Cc4ccc(O)c5c4[C@@]2(CCN3CC2CC2)C1O5)c1cccc(I)c1 (stereo partly shown) [MP1202]        7.94

* * *

target: mDOR (Mus musculus, UniProt P32300); experiment: biochemical
measurement.type: EC50 (nM)

> print(dat)
                                   compound  quantity.unit  meas.value
1  O=C(NC1CCC2(O)C3Cc4ccc(O)c5c4C2(CCN3CC2CC2)C1O5)c1cccc(I)c1 (stereo not shown) [IBNtxA]             nM        4.08

* * *

Emax values for the compounds below.
biological target: UniProtKB P41143; test: cell-based; settings: HTLA, read-out: Emax% arrestin recruitment hDOR
measurement.type: Emax (%)

> print(dat)
                                   compound               tgt  measurement.type  meas.value
1  CO[C@@]12CC[C@@H](NC(=O)c3cccc(I)c3)C3Oc4c(O)ccc5c4[C@@]31CCN(CC1CC1)C2C5 (stereo partly shown) [MP1305]  UniProtKB P41143              Emax          89
2  O=C(NC1C=CC2C3Cc4ccc(O)c5c4C2(CCN3CC2CC2)C1O5)c1cccc(I)c1 (stereo not shown) [MP1104]  UniProtKB P41143              Emax         189
3  NCc1cccc(C(=O)N[C@@H]2CCC3C4Cc5ccc(O)c6c5[C@@]3(CCN4CC3CC3)C2O6)c1 (stereo partly shown) [MP1207]  UniProtKB P41143              Emax          34
4  O=C(N[C@@H]1CCC2C3Cc4ccc(O)c5c4[C@@]2(CCN3CC2CC2)C1O5)c1cccc(I)c1 (stereo partly shown) [MP1202]  UniProtKB P41143              Emax          26
